Experiment: NCI Yeast Anticancer Drug Screen. Data for the mlh1 rad18 strain (AID 175)
Conditions: S. cerevisiae mlh1 rad18 strain growth inhibition; at 50.0 µM (retest, dose inferred, filed as 5.0)
Procedure: Growth inhibition of yeast strains with defined genetic alterations is measured as a screen for potential anti-cancer activity. Selected strains with alterations in DNA damage repair or cell cycle control were exposed to compounds and growth inhibition was measured relative to vehicle treated controls. The strain used in this assay is mlh1 rad18
This is part of a sample that, as a whole, favours compounds with a hit. Of some 79,000 tested, about 15% had one in any assay. Active and inactive are the calls of the source. Cut-off read from the data, not from the text of the source: active = growth inhibition above about 70%; inactive = the rest.
Labels: y = active, n = inactive

In [3]: df
Out[3]:
                                    compound  class_assignment
 0                           COc1cccc(=O)cc1                 y
 1     O=[N+]([O-])c1ccc(-c2nc3c(o2)CCC3)cc1                 n
 2  CC1=NC(=Cc2cccc(Cl)c2)C(=O)N1n1c(-c2ccccc2)nc2ccccc2c1=O                 y
 3  CC(=O)NC(C)(C)C1CCC(C)=C(c2ccccc2)C1 (stereo not drawn)                 n
 4  COc1cc(C(=O)C=[N+]=[N-])c([N+](=O)[O-])c(OC)c1OC                 y
 5   COc1ccc2c(c1OC)OCC2C (stereo not drawn)                 n
 6                      O=C(O)CSC(=S)N1CCCC1                 n
 7          Cc1cccc(Cl)c1NC(=O)/C=C/c1ccccc1                 n
 8                      Oc1ccc2cc(Br)ccc2c1O                 y
 9           O=C(O)/C=C/c1c2ccccc2cc2ccccc12                 y
10       O=C(CCCCCCCCCCc1ccccc1)c1ccc(Cl)cc1                 y
11         CCOC(=O)N/N=C/c1ccc(N(C)CCC#N)cc1                 n
12   Cc1ccc(NC(=O)CCC(=O)CC(=O)C(C)(C)C)cc1C                 n

---

Below, each of the compounds is paired with its reported growth inhibition value.
experiment: NCI Yeast Anticancer Drug Screen. Data for the mec2-1 strain (AID 157); conditions: S. cerevisiae mec2-1 strain, at 50.0 µM (retest, dose inferred, filed as 5.0), hits give high values
The panel holds about 79,000 compounds, 15% with a hit somewhere; the sample as a whole holds those more often.
Endpoint: growth inhibition (%)

In [3]: df
Out[3]:
                                    compound           endpoint  assay_value
 0          O=C(c1ccccc1)N(C1CCCCC1)C1CCCCC1  growth inhibition           98
 1  CCC[CH2][Sn]([CH2]CCC)([O]C(=O)c1cc(F)ccc1F)[O]C(=O)c1cc(F)ccc1F  growth inhibition           25
 2  O=S(=O)(c1ccccc1)n1cc(C[P+](c2ccccc2)(c2ccccc2)c2ccccc2)c2ccccc21  growth inhibition           99
 3   CCCN(CCC)CCNc1ccc(C)c2sc3ccccc3c(=O)c12  growth inhibition          100
 4  O=c1c2cccc3cccc(c4oc5c6cccc7cccc(c(=O)c5c14)c76)c32  growth inhibition           97
 5  CCCC(Sc1ccccc1)c1ccccc1NC(C)=O (centres undefined)  growth inhibition            8
 6                   Clc1ccccc1/C=C/c1ccccn1  growth inhibition          -16
 7  CC12C(=O)OC(=O)C1C1c3ccccc3C2c2ccccc21 (centres undefined)  growth inhibition           99
 8         Cc1ccc(/[N+]([O-])=C/c2ccccc2)cc1  growth inhibition          -17
 9     Cc1cc2c(c(C(N)=O)c1C)-c1cccc(F)c1C2=O  growth inhibition           20
10  CC12CCCCC1CCC(Br)C2=O (centres undefined)  growth inhibition          -18
11          Oc1cc(-[n+]2ccccc2)c(O)c2ccccc12  growth inhibition           68
12  CCOC(=O)c1[nH]c2c([N+](=O)[O-])cccc2c1[N+](=O)[O-]  growth inhibition           16
13      Nc1ncc2ccccc2c1-c1ccc(NC(=O)CCCl)cc1  growth inhibition           40
14       O=S1Nc2ccccc2S1 (centres undefined)  growth inhibition           33
15         O=[N+]([O-])c1cccc(S(=O)(=O)Cl)c1  growth inhibition            3
16  CSc1cc(Cl)c(C)cc1S(=O)(=O)NC(=O)Nc1ccc(Cl)cc1  growth inhibition           99
17  O=C(CNc1cccc([N+](=O)[O-])c1)Nn1c(-c2ccccc2)nc2ccccc2c1=O  growth inhibition           17
18  COc1ccccc1CN1CCCN(Cc2ccccc2OC)C1c1ccccc1F  growth inhibition          -11
19  CC(=O)c1ccc2c(c1)CC1(C2)Cc2cc3c(c(C(=O)O)c2C1)CCC3 (centres undefined)  growth inhibition           95
20                              Cc1nc(N)nn1C  growth inhibition           -2
21  CC1(C)C/C(=N/NC(N)=S)C(=NO)/C(=N\NC(N)=S)C1  growth inhibition           40
22                   CC(=O)Nc1cccc(C(=O)O)c1  growth inhibition           -4
23        O=C1C=CC(=Nc2cccc3c2-c2ccccc2C3)O1  growth inhibition           99

---

assay: NCI Yeast Anticancer Drug Screen. Data for the bub3 strain (AID 167); conditions: S. cerevisiae bub3 mutant strain, at 50.0 µM (retest, dose inferred, filed as 5.0), hits give high values
This is part of a sample that, as a whole, favours compounds with a hit. Of some 79,000 tested, about 15% had one in any assay.
Endpoint: growth inhibition (%)

Compound	Endpoint	Assay Value
CC(=O)c1c2c(cc3c1CC1(C3)Cc3cc4c(c(C(=O)O)c3C1)CCCC4)CCCC2 (stereo unspecified) (tested in a mixture with another compound)	growth inhibition	99
CCOc1cc(C(c2ccc(N(C)C)cc2)c2ccc(N(C)C)cc2)ccc1O	growth inhibition	79
c1ccc([B-](c2ccccc2)(c2ccccc2)c2ccccc2)cc1	growth inhibition	2
COc1ccc(N=NN(C)C)cc1	growth inhibition	50
NC(=S)NNC(=O)c1cccnc1	growth inhibition	82
CC(C)C1=C(O)C2=C(C(=O)C1=O)C1(C)CCCC(C)(C)C1C(O)C2OC=O (stereo unspecified)	growth inhibition	100
Cc1ccc([N+](=O)[O-])cc1Cl	growth inhibition	-4
CSC(=S)OC1CC(n2cnc3c(NC(=O)c4ccccc4)ncnc32)OC1CO[Si](C)(C)C(C)(C)C (stereo unspecified)	growth inhibition	-5
O=C1C=CC(=O)N1c1ccc(-c2nc3ccccc3o2)cc1	growth inhibition	87
O=c1[nH]c2ccccc2c(O)c1/C=N/C(=S)NCCc1ccccc1	growth inhibition	20
COc1cc(Nc2ccc(Oc3ccc(O)cc3)cc2)c2ncccc2c1	growth inhibition	5
CC(C)=C1C=C2CCC3C(C)(C(=O)O)CCCC3(C)C2CC1 (stereo unspecified) (tested in a mixture with another compound)	growth inhibition	98
O=c1c2c3ccccc3[nH]c2c2cccc3c2n1CCC3	growth inhibition	96
CCN(CC)CCCC(C)Nc1cc(F)cc2cccnc12 (stereo unspecified)	growth inhibition	41
CC1(C)CC(=O)C(c2ccccc2[N+](=O)[O-])=C(O)C1	growth inhibition	-1
CCCCCCCCN(CCCCCCCC)CC(O)c1cc2c(c3ccccc13)CCCC2 (stereo unspecified)	growth inhibition	95
CN(C)C(=O)c1ccccc1SC(=S)NCc1ccccc1	growth inhibition	99
Cc1occc1C(=S)Nc1ccc(Cl)c(/C=N/OC(C)C)c1	growth inhibition	86
ON1CCc2c([nH]c3ccccc23)C1c1ccc(Cl)cc1 (stereo unspecified)	growth inhibition	96
COc1ccc2c(c1)CCn1c(C)c(COC(=O)NC(C)C)c(COC(=O)NC(C)C)c1-2	growth inhibition	98
CCOc1ccc2nc([NH-])sc2c1.CCOc1ccc2nc([NH-])sc2c1.CCOc1ccc2nc([NH-])sc2c1.CCOc1ccc2nc([NH-])sc2c1.[Cl][Rh][Cl]	growth inhibition	34

---

Listed below: growth inhibition values for each entry.
test: NCI Yeast Anticancer Drug Screen. Data for the cln2 rad14 strain (AID 165);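 note: 0% = growth equal to vehicle treated cultures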; conditions: S. cerevisiae cln2 rad14 strain, at 50.0 µM (retest, dose inferred, filed as 5.0), hits give high values
About 79,000 compounds went through this panel and 15% of them were active in at least one assay; those are over-represented in the sample as a whole. Calls of active or inactive are those of the source. No stated cut-off is given here; in the data, active means growth inhibition above about 70%; inactive means the rest.
Endpoint: growth inhibition

>>> df
                                    compound      assay_value
 0  CC(=O)Oc1ccc(N=[N+]([O-])c2ccc(OC(C)=O)cc2)cc1   23% (inactive)
 1  Cc1ccc(Cl)cc1NC(=O)N(C)CCOC(=O)Nc1cccc(Cl)c1     97% (active)
 2     O=C(O)/C(=C/c1ccccc1)c1ccc2ccccc2c1Br     99% (active)
 3  O=C1C2C3C=CC(C3)C2C(=O)C2C3C=CC(C3)C12 (stereo not given)     95% (active)
 4  CC1(C(Cl)(Cl)Cl)C=CC(=NO)C=C1 (stereo not given)   26% (inactive)
 5     Cc1cc2c(c(C(N)=O)c1C)-c1cccc(F)c1C2=O   14% (inactive)
 6  CN1C/C(=C\c2ccccc2)C(=O)C(c2ccccc2)C1 (stereo not given)     94% (active)
 7          CCOc1nc(N)nc(C)c1N=Nc1ccc(Br)cc1   30% (inactive)
 8  COc1ccc(C2c3cc4c(cc3OC(N3CCCC3)C2C)OCO4)c(OC)c1 (stereo not given)   68% (inactive)
 9     O=C(O)/C(Cl)=C(/Cl)C(=O)Nc1cccc(Cl)c1     99% (active)
10  CC1OC(OC2C(Oc3c(-c4ccc(O)c(O)c4O)oc4cc(O)ccc4c3=O)OC(CO)C(O)C2O)C(O)C(O)C1O (stereo not given)    0% (inactive)
11  CC1=C(\C=C/C(C)=N/N=C(C)\C=C\C2=C(C)CCCC2(C)C)C(C)(C)CCC1    7% (inactive)
12  CN(C)CC/C(=N\Nc1ccc([N+](=O)[O-])cc1)c1ccccc1   62% (inactive)
13  O=C(CC(=O)Nc1cccc(Cl)c1)NNCC(=O)Nc1nnc(-c2ccccc2)s1     98% (active)
14                 CCN(CC)C(=S)Nc1ccc(Cl)cc1   40% (inactive)
15  CN(c1ccccc1)c1c2c(oc(=O)c1Cl)-c1ccccc1SC2   32% (inactive)
16  O=c1[nH]c2ccccc2c(O)c1/C=N/C(=S)NCCc1ccccc1   11% (inactive)
17              CS(=O)(=O)c1cc(=O)c2ccccc2s1     99% (active)
18  CN(C)C(=S)/N=c1\sn(C)/c(=N\C(=S)N(C)C)n1C  -36% (inactive)
19  OCC(O)C(O)C(O)C(/C=N/Nc1ccccc1)=N\Nc1ccccc1 (stereo not given)    4% (inactive)
20  CN(C)CCN(C)N=Nc1c(-c2ccc(Cl)cc2)n[nH]c1C(F)(F)F     99% (active)
21  CN(Cc1ccccc1)CC(O)c1cc(-c2ccc(Cl)cc2)nc2ccccc12 (stereo not given)     99% (active)
22  N#CNc1nc(N)c(-c2ccc(Cl)cc2)c(C(=O)Nc2ccc(Cl)c(Cl)c2)n1    1% (inactive)
23  O=C(c1ccc(Cl)cc1)C1OC12C(=O)Nc1c(Cl)cc(Cl)cc12 (stereo not given)     99% (active)
24   CN(C)CC/C(=N\Nc1ccc(Cl)c(Cl)c1)c1ccccc1     99% (active)
25         Cc1[nH]nc(-c2cccnc2)c1N=NN1CCOCC1     80% (active)
26  CC[N-]c1nncs1.CC[N-]c1nncs1.CC[N-]c1nncs1.CC[N-]c1nncs1.[Cl][Rh][Cl]     77% (active)
27    COc1ccc(C(=O)Nc2ccccc2[N+](=O)[O-])cc1    5% (inactive)
28            CCCCC(C)(C)OC(=O)Nc1ccc(Br)cc1     96% (active)
29  O=C1c2ccccc2C(O)(c2ccccc2)c2c(Cl)cccc21 (stereo not given)   21% (inactive)
30          CCCCc1ccc2c(c1)Nc1cc3ccccc3cc1N2   30% (inactive)
31  Nc1ccc(O)c2c1C(=O)c1ccccc1C2O (stereo not given)     78% (active)
32  CC([C@H]1CCC2C3CCC4CC5(CC[C@]4(C)C3CC[C@@]21C)c1ccccc1C(=O)N5C)N(C)C (stereo not given in full)     85% (active)
33         F[Si](c1ccccc1)(c1ccccc1)c1ccccc1     82% (active)
34                 CC(C)C(=O)c1ccc2ccccc2c1O    0% (inactive)
35          CCC(CC)=NNc1ccc([N+](=O)[O-])cc1     94% (active)
36                  O=C(O)/C=C/C(=O)c1ccccc1   13% (inactive)
37  CC(=O)Nc1cccc(Oc2ccc(Br)cc2[N+](=O)[O-])c1   47% (inactive)
38  Cc1c2ccncc2c(C)c2c1[nH]c1ccc(OCCN(C)C)cc12   40% (inactive)
39  O=C1/C(=N/N=C(c2ccccc2)c2ccccc2)c2ccccc2-c2ccccc21   -5% (inactive)
40  CC(CN(C)C)C(=O)/C=C/c1ccc(C(C)C)cc1 (stereo not given)   26% (inactive)
41  O=C(CC1Sc2ccccc2NC1=O)Nc1ccc([N+](=O)[O-])cc1[N+](=O)[O-] (stereo not given)   62% (inactive)
42                    NC(=O)c1c(Cl)nc2n1CCS2   -7% (inactive)
43  CCCCN1C(=O)C[C@H]2[C@@H]3CCc4cc(OCCN5CCCC5)ccc4[C@H]3CC[C@]2(C)C1=O     70% (active)
44  O=[N+]([O-])c1ccccc1NC1CCN(CCCC2(c3ccc(F)cc3)OCCO2)CC1     94% (active)
